Molecular target: HIV-1 Env of Q168.a2 (HIV-1)
Assay: cell-based or functional assay
Readout Name: neutralization IC50

For reference, reported neutralization IC50 for CAP256-VRC26.12 (antibody, V domains shown) VH: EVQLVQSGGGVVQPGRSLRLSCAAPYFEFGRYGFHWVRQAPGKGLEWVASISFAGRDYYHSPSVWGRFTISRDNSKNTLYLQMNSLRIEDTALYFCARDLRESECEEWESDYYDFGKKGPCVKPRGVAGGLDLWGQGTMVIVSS VL: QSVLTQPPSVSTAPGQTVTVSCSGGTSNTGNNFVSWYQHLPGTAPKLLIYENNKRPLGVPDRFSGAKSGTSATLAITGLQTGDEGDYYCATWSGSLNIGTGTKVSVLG stands at > 50 µg/mL
